assay: amyloid nucleation score (Sup35N fusion, yeast selection) (log enrichment); library NNK2; higher = more nucleation; inactive = no reads after selection;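 also: zero at mode of non-aggregating sequences after 7 days selection at 30°C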
Label rule, in plain words: amyloid nucleation score of 0.2 and up is Criterion met, under 0.2 is Criterion not met.

These solved cases illustrate the format of a correct answer.
SSDNRFCVDDFEVGVCGVMR
Criterion met
MMVAGLFLGAFFLISTKGVK
Criterion met

Kindly determine if amyloid nucleation score recorded for SGQYKENYGGFHHMLVRWRC is above or exactly 0.2. Criterion not met

* * *

assay: amyloid nucleation score (Sup35N fusion, yeast selection) (log enrichment); library NNK3; higher = more nucleation; inactive = no reads after selection
Quantity name: amyloid nucleation score

These solved cases illustrate the format of a correct answer.
WIRIVRELGRSVR
inactive
LNRLSCFSCPLFV
inactive
GLFCNVFMNKCSS
inactive
IGKSRFKCMSVVRSRFT
inactive
IILFINATGRIRSWCDEYGL
0.681

According to the records, this substance RFYVYIINHHAPVYWVSRYS displays amyloid nucleation score of 2.59

amyloid nucleation score reported for this substance EIVVYFEFLCYFVLEVLKSL : inactive

The measured amyloid nucleation score associated with MIDRRMSFRQGDHKDCPTAH reads inactive

RYSLCCYGGFFRYSRDFMRR yielded amyloid nucleation score of 1.14

Attribution: the supplement of paper PMC12042874
